experiment: Half-life in plasma; type: ADME, cell-free

compound: CO[C@H]1O[C@@H]2OC3(C)CC[C@H]4[C@H](C)CC[C@@H]([C@H]1C)[C@@]24OO3 (single isomer, unassigned)
half-life: < 2 h
//
compound: C[C@H]1[C@@H](C(=O)OCCC(=O)[O-])O[C@@H]2O[C@]3(C)CC[C@H]4[C@H](C)CC[C@@H]1C24OO3.[Na+]
half-life: < 2 h
//
compound: C[C@@H]1CC[C@H]2[C@@H](C)C(=O)O[C@@H]3OC4(C)CC[C@@H]1[C@]32OO4 (single isomer, unassigned)
half-life: < 2 h

Where do the numbers come from? From ChEMBL document CHEMBL1136644.
